Below, each entry is listed with its recorded cytotoxicity at 70.5 h.
# assay remarks: Human HepG2 cell viability assay in 384 well format
# Type: toxicity, cell-based
# Design: dose 125 nL, time 70.5 hour; concentration not given beside the values
# measurement setup: HepG2 cells, read-out: Inhibition
Only the number, expressed in %, is required.

Example entries and their recorded answers appear below.
test smiles | cytotoxicity at 70.5 h, %
CCc1ccc(CN2CC[C@H]3[C@H]2CC(=O)N3Cc2cccc(C)n2)o1 | -7.64
CCN(CC)Cc1ccccc1NC(=O)N(C)Cc1ccccc1O | -6.5
Cc1cc(C(=O)N(C)CCN(C)C(=O)OC(C)(C)C)oc1C | -2.24

Fill in cytotoxicity at 70.5 h for record COc1ccc(OCc2cc(C(=O)N3CCCCO3)n[nH]2)c(Cl)c1
-19.5

Fill in cytotoxicity at 70.5 h for record CNc1cc(C)nc(N2CCC3(CC2)[C@H](O)C[C@@H]3O)n1
-6.92

Fill in cytotoxicity at 70.5 h for record CN(C)c1cccc(C(=O)N2C[C@H]3CC[C@@H]2CN(C(=O)C2CCC2)C3)c1
0.254
